Reference source: the supplement of paper PMC11417369

Tested on: PfAP2-I AP2 domain 3 (GST-tagged)
assay_text: gcPBM binding intensity (ln(normalized median fluorescence intensity)); higher = stronger DNA binding
Over roughly 25,000 sequences, “ln(normalized median fluorescence intensity)” has its median near 7.9; the highest 2% begin near 11. Shown is part of a subset that was picked to be rich in the highest values.
Class (required): determined from gcPBM binding intensity (ln); valid ranges are low (below 8), intermediate (8 to below 10), high (10 or more)

AAGTATTTTTTTACATGTACATATATATATATATAT [XGTACX_site5065]; intermediate
CCATCTTTTTTACGATGTACAAGTATAAGGTATACG [XGTACX_site2697]; low

Could you place CAGGTGCACTATATTACACACGCTTCTTTTTTTTTA [CACACA_site2069] in its proper category? Many thanks.
high

Category of ATAACAAAAAAAAAGGTGCTACAAAATGAATAAAAA [GTGCAC_site9659] :
intermediate

Class (by measured gcPBM binding intensity (ln)) for CCATTTGATAATAATGCACACCACATATATTTATAT [CACACA_site9002]
high

Each sequence maps to one class by gcPBM binding intensity (ln). Which class for AATATTCAATATAAAGTGCATTATTGTGGACCTAAT ?
high

Could you place TCTATTAATTAATATACACACATTATATATATATAT [CACACA_site8815] in its proper category? Many thanks.
intermediate
